Measured MIC of Cefotiam with 1 μg/ml of Compound, listed per entry for reference.
Test system: Proteus morganii TN 387
Assay: Synergy with Cefotiam, agar dilution MIC
Format: cell-based
Conditions: Table 4, 1 μg/ml test compound in agar, inoculum 10^8 per ml, 18 hours
Description: The inoculum concentration is 10^8 per ml, and the medium is prepared by using Trypticase® soy agar (Becton Dickinson & Company, USA).
Kindly provide the number alone.

1) CON=C(C(=O)NC1CN(S(=O)(=O)O)C1=O)c1csc(NS(=O)(=O)O)n1 (stereo not drawn) :: 100
2) CC(C)(C)OC(=O)C(C)(C)ON=C(C(=O)NC1CN(S(=O)(=O)[O-])C1=O)c1csc(NS(=O)(=O)[O-])n1.[Na+].[Na+] (stereo not drawn) :: 0.2
3) CON=C(C(=O)NC1CN(S(=O)(=O)O)C1=O)c1csc(N)n1 (stereo not drawn) :: 25

Continue with the next compound.
Ask: Request: MIC of Cefotiam with 1 μg/ml of Compound, test system Proteus morganii TN 387, entry COC1(NC(=O)[C@H](NC(=O)N2CCN(N=Cc3ccco3)C2=O)c2ccccc2)CN(S(=O)(=O)O)C1=O (stereo partly drawn)
Reply: 0.39

* * *

biological target: β-lactamase produced by Staphylococcus aureus 1840 (Staphylococcus aureus); construct: endogenous in cells; host or cells: Staphylococcus aureus 1840; experiment: Inhibitor concentration required to inhibit β-lactamase (penicillinase) activity by 50%, micro-iodometric method; assay type: biochemical; settings: Staphylococcus aureus 1840 penicillinase; 0.05M phosphate buffer pH 7, 30° C., 10 minutes preincubation; cephalothin or ampicillin 0.1 mM; read-out: I50 (converted)
READOUT LABEL: IC50 (nM)
Give the value, in units of nM, as a plain number.

Some solved cases for reference:
1. CCN1C(=O)C(=O)N(C(=O)N[C@@H](C(=O)NC2CN(S(=O)(=O)O)C2=O)c2cccs2)C[C@@H]1C (stereo partly shown) [Compound 44] :: 2460
2. CCOC(=O)C(C(=O)c1ccccc1)=C1SC(C(=O)NC2CN(S(=O)(=O)O)C2=O)S1 (stereo not shown) [Compound 54] :: 2540
3. O=C(NC1CN(S(=O)(=O)O)C1=O)C(=O)c1ccccc1 (stereo not shown) :: 12500

Continue with the next molecule.
Ask: Quick check: IC50 of O=C(NC1CN(S(=O)(=O)O)C1=O)C(Br)c1ccccc1 (stereo not shown) ?
Reply: 493

* * *

Target: β-lactamase produced by Enterobacter cloacae IFO 12937 (Enterobacter cloacae, UniProt P05364)
Construct: The β-lactamase produced by Enterobacter cloacae IFO 12937; endogenous in cells; host or cells: Enterobacter cloacae IFO 12937
Sequence (P05364 21-381): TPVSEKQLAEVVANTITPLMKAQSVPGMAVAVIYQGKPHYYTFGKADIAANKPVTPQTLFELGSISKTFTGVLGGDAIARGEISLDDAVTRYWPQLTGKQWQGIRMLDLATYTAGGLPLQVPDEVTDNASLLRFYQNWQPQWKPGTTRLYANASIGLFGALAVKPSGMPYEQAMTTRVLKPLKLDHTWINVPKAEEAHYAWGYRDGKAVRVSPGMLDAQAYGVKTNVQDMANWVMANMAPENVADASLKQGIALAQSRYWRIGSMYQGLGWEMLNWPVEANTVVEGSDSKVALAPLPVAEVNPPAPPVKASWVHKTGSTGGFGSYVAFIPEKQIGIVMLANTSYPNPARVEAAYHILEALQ
Assay: Inhibitor concentration required to inhibit β-lactamase (cephalosporinase) activity by 50%, micro-iodometric method
Type: biochemical
Details: Enterobacter cloacae IFO 12937 cephalosporinase; 0.05M phosphate buffer pH 7, 30° C., 10 minutes preincubation; cephalothin or ampicillin 0.1 mM; read-out: I50 (converted)
Experimental: Determination of the inhibitor concentration required to inhibit the enzyme activity by 50% The β-lactamase produced by Enterobacter cloacae IFO 12937 is used as a typical example of cephalosporinase, and that produced by Staphylococcus aureus 1840 as typical example of penicillinase. […] The enzyme activity is determined by the micro-iodometric method [Journal of general Microbiology, vol. […] Hereinafter, the inhibitor concentration required to inhibit the enzyme activity by 50% is expressed as I50. […]
Measured IC50, listed per entry for reference.
Give the value, in units of nM, as a plain number.

Some solved cases for reference:
1) Cc1onc(-c2c(Cl)cccc2Cl)c1C(=O)N[C@@H](C(=O)NC1CN(S(=O)(=O)O)C1=O)c1cccs1 (stereo partly shown) :: 6440
2) COc1ccc(COC(=O)C(C(=O)NC2(OC)CN(S(=O)(=O)O)C2=O)c2ccc(O)cc2)cc1 (stereo not shown) :: 387

Ask: Quick check: IC50 of COc1cccc(OC)c1C(=O)NC1CN(S(=O)(=O)O)C1=O (stereo not shown) ?
Reply: 7100

Ask: Request: COC1(NC(=O)C(C(=O)O)c2ccccc2)CN(S(=O)(=O)O)C1=O (stereo not shown)
Reply: 391

Ask: Request: CNC(=O)CC(NC(=O)OCc1ccccc1)C(=O)NC1(OC)CN(S(=O)(=O)O)C1=O (stereo not shown)
Reply: 2400

Ask: Request: CCCCCCCCN1CCN(C(=O)NC(C(=O)NC2(OC)CN(S(=O)(=O)O)C2=O)c2cccs2)C(=O)C1=O (stereo not shown)
Reply: 78.3

* * *

molecular target: β-lactamase produced by Staphylococcus aureus 1840 (Staphylococcus aureus, UniProt P00807); construct: endogenous in cells; host or cells: Staphylococcus aureus 1840; experiment: Inhibitor concentration required to inhibit β-lactamase (penicillinase) activity by 50%, micro-iodometric method; type: biochemical; details: Staphylococcus aureus 1840 penicillinase; 0.05M phosphate buffer pH 7, 30° C., 10 minutes preincubation; cephalothin or ampicillin 0.1 mM; read-out: I50 (converted)
Sequence (P00807 25-281): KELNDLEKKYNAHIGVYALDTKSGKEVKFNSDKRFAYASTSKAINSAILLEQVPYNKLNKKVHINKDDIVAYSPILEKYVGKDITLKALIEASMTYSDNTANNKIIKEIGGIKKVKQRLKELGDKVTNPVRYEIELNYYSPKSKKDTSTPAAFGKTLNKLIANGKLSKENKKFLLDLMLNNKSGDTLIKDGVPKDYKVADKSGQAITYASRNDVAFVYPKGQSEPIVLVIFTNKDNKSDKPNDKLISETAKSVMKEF
READOUT LABEL: log10(IC50) (log10 of the value in µM)
On a log10 scale: recorded IC50, unit µM.

1) Nc1nc(CC(=O)N[C@@H](C(=O)NC2CN(S(=O)(=O)O)C2=O)c2ccccc2)cs1 (some centres unmarked) [Compound 47] :: 1.06
2) O=C(NC(CS(=O)(=O)NC1CN(S(=O)(=O)O)C1=O)C(=O)OCc1ccccc1)OCc1ccccc1 (centres unmarked) [Compound 48] :: 0.50
3) [N-]=[N+]=NC(C(=O)NC1CN(S(=O)(=O)O)C1=O)c1cccc(Cl)c1 (centres unmarked) :: -0.83
4) O=C(CSc1c(Cl)cccc1Cl)N[C@@H](C(=O)NC1CN(S(=O)(=O)O)C1=O)c1ccccc1 (some centres unmarked) [Compound 46] :: 0.98
5) [N-]=[N+]=NC(C(=O)NC1CN(S(=O)(=O)O)C1=O)c1ccccc1 (centres unmarked) :: -0.84

Ask: Quick check: log10(IC50) of Cc1onc(-c2c(Cl)cccc2Cl)c1C(=O)N[C@@H](C(=O)NC1CN(S(=O)(=O)O)C1=O)c1cccs1 (some centres unmarked) [Compound 25] ?
Reply: -0.15

Ask: Request: CS(=O)(=O)NC1CN(S(=O)(=O)O)C1=O (centres unmarked) [Compound 52]
Reply: 1.16

Ask: Request: O=C(NC1CN(S(=O)(=O)O)C1=O)[C@H](NC(=O)N1CCNC1=O)c1cccs1 (some centres unmarked) [Compound 45]
Reply: 0.76

* * *

biological target: β-lactamase produced by Enterobacter cloacae IFO 12937 (Enterobacter cloacae); construct: The β-lactamase produced by Enterobacter cloacae IFO 12937; endogenous in cells; host or cells: Enterobacter cloacae IFO 12937; assay: Inhibitor concentration required to inhibit β-lactamase (cephalosporinase) activity by 50%, micro-iodometric method; assay type: biochemical; settings: Enterobacter cloacae IFO 12937 cephalosporinase; 0.05M phosphate buffer pH 7, 30° C., 10 minutes preincubation; cephalothin or ampicillin 0.1 mM; read-out: I50 (converted)
Measured IC50, listed per entry for reference.
Give the value, in units of nM, as a plain number.

Some solved cases for reference:
1) COC1(NC(=O)[C@H](NC(=O)N2CCN(C3CCCCC3)C(=O)C2=O)c2cccs2)CN(S(=O)(=O)O)C1=O (stereo partly shown) :: 215
2) COC1(NC(=O)[C@H](NC(=O)N2CCN(CC(=O)N3CCCCC3)C(=O)C2=O)c2cccs2)CN(S(=O)(=O)O)C1=O (stereo partly shown) :: 130
3) Cc1onc(-c2c(Cl)cccc2Cl)c1C(=O)NC1CN(S(=O)(=O)O)C1=O (stereo not shown) :: 162

Ask: Quick check: IC50 of CCN1CCN(C(=O)N[C@H](Cc2ccccc2)C(=O)NC2(OC)CN(S(=O)(=O)O)C2=O)C(=O)C1=O (stereo partly shown) ?
Reply: 2150

* * *

molecular target: β-lactamase produced by Enterobacter cloacae IFO 12937 (Enterobacter cloacae, UniProt P05364); construct: The β-lactamase produced by Enterobacter cloacae IFO 12937; endogenous in cells; host or cells: Enterobacter cloacae IFO 12937; experiment: Inhibitor concentration required to inhibit β-lactamase (cephalosporinase) activity by 50%, micro-iodometric method; type: biochemical; settings: Enterobacter cloacae IFO 12937 cephalosporinase; 0.05M phosphate buffer pH 7, 30° C., 10 minutes preincubation; cephalothin or ampicillin 0.1 mM; read-out: I50 (converted)
Measured log10(IC50), listed per entry for reference.
On a log10 scale: recorded IC50, unit nM.

1) COC1(NC(=O)C(C)NC(=O)C(CS(=O)(=O)NS(=O)(=O)O)NC(=O)OCc2ccccc2)CN(S(=O)(=O)O)C1=O (stereo not shown) :: 3.08
2) CC(C)(ON=C(C(=O)NC1CN(S(=O)(=O)O)C1=O)c1csc(NC(c2ccccc2)(c2ccccc2)c2ccccc2)n1)C(=O)O (stereo not shown) :: 3.68
3) O=C(NC1CN(S(=O)(=O)O)C1=O)C(c1cccs1)N1C(=O)c2ccccc2C1=O (stereo not shown) :: 2.94
4) CCCCCCCCN1CCN(C(=O)N[C@@H](C(=O)NC2CN(S(=O)(=O)O)C2=O)c2cccs2)C(=O)C1=O (stereo partly shown) :: 3.70
5) Cc1ccc(SN=C(C(=O)NC2CN(S(=O)(=O)O)C2=O)c2ccccc2)cc1 (stereo not shown) :: 3.10
6) CC(C)ON=C(C(=O)NC1CN(S(=O)(=O)O)C1=O)c1csc(NC(=O)CCl)n1 (stereo not shown) :: 3.38
7) COC1(NC(=O)C(C(=O)OCc2ccccc2)c2ccccc2)CN(S(=O)(=O)O)C1=O (stereo not shown) :: 1.95
8) COC1(NC(=O)[C@H](NC(=O)N2CCN(CC=C(C)C)C(=O)C2=O)c2cccs2)CN(S(=O)(=O)O)C1=O (stereo partly shown) :: 2.08
9) CC(C)(C)OC(=O)C(C)(C)ON=C(C(=O)NC1CN(S(=O)(=O)[O-])C1=O)c1csc(NS(=O)(=O)[O-])n1.[Na+].[Na+] (stereo not shown) :: 0.96

Continue with the next compound.
Ask: Quick check: log10(IC50) of CCN1CCN(C(=O)NC(C(=O)NC2CN(S(=O)(=O)O)C2=O)C2=CCCCC2)C(=O)C1=O (stereo not shown) ?
Reply: 3.69
